Data provenance: PubChem BioAssay AID1851

# experimental-system: Cytochrome P450 2D6 (Homo sapiens)
# test-description: Cytochrome panel assay with activity outcomes
# assay-conditions: recombinant CYP, pro-luciferin dealkylation, luminescence, p450-cyp2d6; series mostly up to 57.1 µM
Out of some 16,000 compounds screened, about 2,600 (16%) were called active. Inconclusive results (about 20%) are left out. Calls follow the shape of the dose curve; as a rule, active = well fitted curve in the direction sought with a large enough effect; inconclusive = small, poorly fitted or top-dose-only effect, or effect the other way; inactive = no such curve, though single readings can be large or run the other way. A selection follows.
Tick one outcome: 1.0 = active, 0.0 = inactive

Use these answered entries as a reference point.
>>> class_name("Cc1ccc(C(=O)C(OC(=O)COc2ccccc2C)c2ccccc2)cc1 (configuration not stated)")
0.0
>>> class_name("Cc1ccc(C(=O)C(OC(=O)CNS(=O)(=O)c2ccccc2)c2ccccc2)cc1 (configuration not stated)")
0.0
>>> class_name("COc1ccc(-c2nc3cnc(Nc4ccccc4)nc3n(CCC#N)c2=O)cc1")
0.0
>>> class_name("NC(N)=N/N=C(/c1ccccc1)c1ccc(O)cc1O")
1.0

Now examine the next entry.
For `COC(=O)c1c(-c2ccccc2)csc1NC(=O)CSc1ncnc2sc(C)c(C)c12` , what call appears in the results of this test?
0.0

----------
# experimental-system: Cytochrome P450 2D6 (Homo sapiens)
# test-description: Cytochrome panel assay with activity outcomes; as to activity, negative = inhibition: % is scaled to controls: 0 for no effect and ±100 for the full control effect
# assay-conditions: recombinant CYP, pro-luciferin dealkylation, luminescence, p450-cyp2d6; series mostly up to 57.1 µM
About 2,600 (16%) of roughly 16,000 compounds were called active. Another 20% or so got no clear call; they are omitted. Not all results are given here.
observation-type: activity, negative = inhibition

Worked examples follow.
>>> value("CO[C@H]1C[C@@H]2C[C@H](O)C[C@@H](CC(=O)O[C@@H](/C=C\\CC(C)C)C[C@@H]3CC[C@H](C)[C@@H](C1)O3)O2")
"-2.62% [at 11.4 µM] (inactive)"
>>> value("Cc1ccc(C(C)C)n1C(=O)OC(C)(C)C")
"0.591% [at 11.4 µM] (inactive)"
>>> value("Cc1ccc(S(=O)(=O)Nc2ccccc2C=O)cc1")
"-1.56% [at 11.4 µM] (inactive)"

Tell me activity, negative = inhibition reported for `COc1ccc2c(c1)Cc1cc(N=[N+]([O-])c3ccc4c(c3)Cc3cc(OC)ccc3-4)ccc1-2`
-7.57% [at 11.4 µM] (inactive)

Tell me activity, negative = inhibition reported for `O=C1c2ccccc2C(=O)c2c(NC3CCCCC3)ccc(Nc3ccc(S(=O)(=O)O)cc3)c21`
-10.8% [at 11.4 µM] (inactive)

Tell me activity, negative = inhibition reported for `CC[C@@H](c1ccccc1)n1c(=O)n2n(c1=O)[C@H]1[C@H](O)[C@H]3O[C@@H]3/C(=N/OC/C=C(\C)CCC=C(C)C)[C@@H]1CC2`
3.1% [at 11.4 µM] (inactive)

Tell me activity, negative = inhibition reported for `O[C@@H](COc1cccc2ccccc12)CN1CCOCC1`
-5.64% [at 11.4 µM] (inactive)

Tell me activity, negative = inhibition reported for `c1ccc(NCCSc2nc3ccccc3s2)cc1`
1.99% [at 11.4 µM] (inactive)

Tell me activity, negative = inhibition reported for `Cn1ncc2c(Nc3cccc(Cl)c3)nc(Nc3cccc(Cl)c3)nc21`
16.7% [at 11.4 µM] (inactive)

----------
# experimental-system: Cytochrome P450 2D6 (Homo sapiens) (UniProt P10635)
# Sequence (P10635 whole entry, looked up): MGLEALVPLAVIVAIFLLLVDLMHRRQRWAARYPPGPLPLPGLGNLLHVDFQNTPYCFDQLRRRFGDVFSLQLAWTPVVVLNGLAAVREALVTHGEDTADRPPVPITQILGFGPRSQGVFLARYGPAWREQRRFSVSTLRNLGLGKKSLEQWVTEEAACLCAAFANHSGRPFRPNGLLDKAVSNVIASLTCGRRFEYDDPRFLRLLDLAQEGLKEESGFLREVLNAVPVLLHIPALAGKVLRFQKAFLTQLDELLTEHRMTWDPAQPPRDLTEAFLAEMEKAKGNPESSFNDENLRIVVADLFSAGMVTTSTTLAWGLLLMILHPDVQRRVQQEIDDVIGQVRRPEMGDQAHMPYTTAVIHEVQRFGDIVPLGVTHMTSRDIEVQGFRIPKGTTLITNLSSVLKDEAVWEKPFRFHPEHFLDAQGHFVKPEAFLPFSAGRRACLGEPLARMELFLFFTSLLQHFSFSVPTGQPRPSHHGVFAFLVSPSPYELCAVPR
# test-description: Cytochrome panel assay with activity outcomes; as to activity, negative = inhibition: % is scaled to controls: 0 for no effect and ±100 for the full control effect
# assay-conditions: recombinant CYP, pro-luciferin dealkylation, luminescence, p450-cyp2d6; series mostly up to 57.1 µM
In all, about 16,000 compounds went through this assay and about 2,600 (16%) were called active. About 20% were inconclusive and are not listed. Only a sample is shown.
observation-type: activity, negative = inhibition

Worked examples follow.
>>> value("C[N+](C)(C)c1ccc([C@H](N)C(=O)O)cc1")
"6.78% [at 11.4 µM] (inactive)"
>>> value("Cc1ccc([C@@]2(C)CC/C(=N/N=C3\\CC[C@](C)(c4ccc(C)c(C)c4)c4cc(C)c(C)cc43)c3cc(C)c(C)cc32)cc1C")
"-2.73% [at 11.4 µM] (inactive)"
>>> value("CCCC[C@@H]1CN2[C@H](c3ccc(Br)cc3)[C@@H](C)CC[C@H]2C(=O)O1")
"-5.55% [at 11.4 µM] (inactive)"

Tell me activity, negative = inhibition reported for `CCOC(=O)N/N=C1/C[C@@H](O)[C@@H](O)[C@@H]2[C@@H]3C(=O)N(C(C)(C)C)C(=O)[C@H]3CC[C@@H]12`
-10.6% [at 11.4 µM] (inactive)

Tell me activity, negative = inhibition reported for `Nc1c(S(N)(=O)=O)cc(S(N)(=O)=O)cc1S(N)(=O)=O`
18.8% [at 11.4 µM] (inactive)

Tell me activity, negative = inhibition reported for `Cc1ncc(COP(=O)(O)O)c(C)c1O`
11.2% [at 11.4 µM] (inactive)

Tell me activity, negative = inhibition reported for `Nc1nc(N)c(N=Nc2ccc(C(=O)O)c(O)c2)c(N)n1`
-8.46% [at 11.4 µM] (inactive)

Tell me activity, negative = inhibition reported for `CC(C)CO/N=C1/C[C@@H](O)[C@@H](O)[C@@H]2[C@@H]3C(=O)N([C@@H](C)c4ccccc4)C(=O)[C@H]3CC[C@H]12`
-7.99% [at 11.4 µM] (inactive)

Tell me activity, negative = inhibition reported for `CO[C@H]1COC(=O)C/C=C\[C@H](C)COC(=O)[C@@H](OCc2ccccc2)/C=C\[C@@H]1C`
-13.9% [at 11.4 µM] (inactive)
